Protocol Description: Cytotoxicity against mouse B16F10 cells assessed as cell viability after 24 hrs by MTT assay
Format: cell-based, B16-F10
Set-up: concentration or dose not given beside the values
Recorded Endpoint: cytotoxicity (% decrease in viability) at 24 h (%)
Numbers only, in %.

# example entries with known answers
{"Compound": "COc1ccccc1/C=C/C(=O)O[C@H]1Cc2cc3ccc(=O)oc3cc2OC1(C)C", "Value Reported": -5.1}
{"Compound": "CC(=O)O[C@H]1Cc2cc3ccc(=O)oc3cc2OC1(C)C", "Value Reported": 3.7}
{"Compound": "CCCCC(=O)O[C@H]1Cc2cc3ccc(=O)oc3cc2OC1(C)C", "Value Reported": 10.4}
{"Compound": "CC1(C)Oc2cc3oc(=O)ccc3cc2C[C@@H]1OC(=O)/C=C/c1cc(O)c(O)c(O)c1", "Value Reported": 42.9}
{"Compound": "CC1(C)Oc2cc3oc(=O)ccc3cc2C[C@@H]1OC(=O)/C=C/c1cccc(O)c1", "Value Reported": 47.9}

Need cytotoxicity (% decrease in viability) at 24 h for each of these compounds.
1. COc1ccc(/C=C/C(=O)O[C@H]2Cc3cc4ccc(=O)oc4cc3OC2(C)C)cc1OC
2. CC1(C)Oc2cc3oc(=O)ccc3cc2C[C@@H]1O [DECURSINOL]
3. C/C=C(/C)C(=O)O[C@H]1Cc2cc3ccc(=O)oc3cc2OC1(C)C [DECURSINOL ANGELATE]
4. CC1(C)Oc2cc3oc(=O)ccc3cc2C[C@@H]1OC(=O)/C=C/c1ccccc1O

*A*
1: -1.4; 2: 1.4; 3: -2.4; 4: 74.2
